- Target Entity: SHIP2-SH2 S84A (Homo sapiens, UniProt O15357, S84A)
- Construct: The SHIP2 SH2 domain (hereafter represented by SHIP2-SH2); made in house
- Sequence (O15357 21-117 S84A limits assumed): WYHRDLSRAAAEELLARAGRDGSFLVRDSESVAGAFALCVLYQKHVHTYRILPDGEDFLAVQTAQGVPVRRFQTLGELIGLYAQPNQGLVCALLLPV
- Assay Explanation: Fluorescence polarization binding, SHIP2-SH2 mutant S84A
- Stated Conditions: FP assay; FAM-labeled 13-mer phosphopeptide 100 nM; pH 7.5; n = 3 averaged; ± standard error of fitting; SEM; read-out: dissociation constant (KD) for SHIP2-SH2 S84A
Square brackets hold non-standard residues; d marks the D form. Peptide text beside a SMILES is read from it. pY = N[C@@H](Cc1ccc(OP(=O)(O)O)cc1)C(=O)O
Endpoint Name: Kd (µM)
Report as a plain number; the unit µM is understood.

# example entries with known answers
{"Compound": "CC[C@H](C)[C@H](NC(=O)[C@@H](NC(=O)[C@H](C)NC(=O)[C@H](Cc1ccc(OP(=O)(O)O)cc1)NC(=O)[C@@H](NC(=O)[C@@H]1CCCN1C(=O)[C@H](CCC(=O)O)NC(=O)[C@@H]1CCCN1C(=O)[C@@H](N)CO)[C@@H](C)CC)[C@@H](C)O)C(=O)N[C@@H](CC(=O)O)C(=O)N[C@@H](CC(=O)O)C(=O)N[C@@H](CC(C)C)C(=O)NCC(=O)O [EPIYA-C] (H-SPEPI[pY]ATIDDLG-OH)", "Assay Value": 2.79}
{"Compound": "CC[C@H](C)[C@H](NC(=O)[C@@H](NC(=O)[C@H](C)NC(=O)[C@H](Cc1ccc(OP(=O)(O)O)cc1)NC(=O)[C@@H](NC(=O)[C@@H]1CCCN1C(=O)[C@H](CCC(=O)O)NC(=O)[C@@H]1CCCN1C(=O)[C@@H](N)CO)[C@@H](C)CC)[C@@H](C)O)C(=O)N[C@@H](CC(=O)O)C(=O)N[C@@H](Cc1ccccc1)C(=O)N[C@@H](CC(=O)O)C(=O)N[C@@H](CCC(=O)O)C(=O)O [EPIYA-D]", "Assay Value": 2.69}

// next item, Kd requested
Lab note: measured Kd of CC[C@H](C)[C@H](NC(=O)[C@@H]1CCCN1C(=O)[C@H](CCC(=O)O)NC(=O)[C@H](CC(N)=O)NC(=O)[C@@H](N)CCC(=O)O)C(=O)N[C@@H](Cc1ccc(OP(=O)(O)O)cc1)C(=O)N[C@@H](C)C(=O)N[C@@H](CCCCN)C(=O)N[C@H](C(=O)N[C@@H](CC(N)=O)C(=O)N[C@@H](CCCCN)C(=O)N[C@@H](CCCCN)C(=O)N[C@@H](CCCCN)C(=O)O)C(C)C [EPIYA-A] (H-ENEPI[pY]AKVNKKK-OH) was 16.4

###

- Target Entity: SHIP2-SH2 S51A (Homo sapiens, UniProt O15357, S51A)
- Construct: The SHIP2 SH2 domain (hereafter represented by SHIP2-SH2)
- Sequence (O15357 21-117 S51A limits assumed): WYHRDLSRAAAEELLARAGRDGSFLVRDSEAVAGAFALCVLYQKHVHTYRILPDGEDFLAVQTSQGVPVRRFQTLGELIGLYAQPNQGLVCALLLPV
- Assay Explanation: Fluorescence polarization binding, SHIP2-SH2 mutant S51A
- Stated Conditions: FP assay; FAM-labeled 13-mer phosphopeptide 100 nM; pH 7.5; n = 3 averaged; ± standard error of fitting; SEM; read-out: dissociation constant (KD) for SHIP2-SH2 S51A
Square brackets hold non-standard residues; d marks the D form. Peptide text beside a SMILES is read from it. pY = N[C@@H](Cc1ccc(OP(=O)(O)O)cc1)C(=O)O
Endpoint Name: pKd
A value of pKd is the negative decimal logarithm of a concentration given in moles per litre.

Please review the following examples before continuing.
{"Compound": "CC[C@H](C)[C@H](NC(=O)[C@@H](NC(=O)[C@H](C)NC(=O)[C@H](Cc1ccc(OP(=O)(O)O)cc1)NC(=O)[C@@H](NC(=O)[C@@H]1CCCN1C(=O)[C@H](CCC(=O)O)NC(=O)[C@@H]1CCCN1C(=O)[C@@H](N)CO)[C@@H](C)CC)[C@@H](C)O)C(=O)N[C@@H](CC(=O)O)C(=O)N[C@@H](CC(=O)O)C(=O)N[C@@H](CC(C)C)C(=O)NCC(=O)O [EPIYA-C] (H-SPEPI[pY]ATIDDLG-OH)", "pKd": 4.65}
{"Compound": "CC[C@H](C)[C@H](NC(=O)[C@@H](NC(=O)[C@H](C)NC(=O)[C@H](Cc1ccc(OP(=O)(O)O)cc1)NC(=O)[C@@H](NC(=O)[C@@H]1CCCN1C(=O)[C@H](CCC(=O)O)NC(=O)[C@@H]1CCCN1C(=O)[C@@H](N)CO)[C@@H](C)CC)[C@@H](C)O)C(=O)N[C@@H](CC(=O)O)C(=O)N[C@@H](Cc1ccccc1)C(=O)N[C@@H](CC(=O)O)C(=O)N[C@@H](CCC(=O)O)C(=O)O [EPIYA-D]", "pKd": 4.61}

# compound CC[C@H](C)[C@H](NC(=O)[C@@H]1CCCN1C(=O)[C@H](CCC(=O)O)NC(=O)[C@H](CCC(=O)O)NC(=O)[C@@H]1CCCN1)C(=O)N[C@@H](Cc1ccc(OP(=O)(O)O)cc1)C(=O)N[C@@H](C)C(=O)N[C@@H](CCC(N)=O)C(=O)N[C@H](C(=O)N[C@@H](C)C(=O)N[C@@H](CCCCN)C(=O)N[C@@H](CCCCN)C(=O)N[C@H](C(=O)O)C(C)C)C(C)C [EPIYA-B] (H-PEEPI[pY]AQVAKKV-OH) ; its pKd = 3.77

Record CC[C@H](C)[C@H](NC(=O)[C@@H]1CCCN1C(=O)[C@H](CCC(=O)O)NC(=O)[C@H](CC(N)=O)NC(=O)[C@@H](N)CCC(=O)O)C(=O)N[C@@H](Cc1ccc(OP(=O)(O)O)cc1)C(=O)N[C@@H](C)C(=O)N[C@@H](CCCCN)C(=O)N[C@H](C(=O)N[C@@H](CC(N)=O)C(=O)N[C@@H](CCCCN)C(=O)N[C@@H](CCCCN)C(=O)N[C@@H](CCCCN)C(=O)O)C(C)C [EPIYA-A] (H-ENEPI[pY]AKVNKKK-OH) , field pKd: 3.74
